# TEST_SYSTEM: human ASCT1 (Homo sapiens, UniProt P43007)
# Sequence (P43007 whole entry): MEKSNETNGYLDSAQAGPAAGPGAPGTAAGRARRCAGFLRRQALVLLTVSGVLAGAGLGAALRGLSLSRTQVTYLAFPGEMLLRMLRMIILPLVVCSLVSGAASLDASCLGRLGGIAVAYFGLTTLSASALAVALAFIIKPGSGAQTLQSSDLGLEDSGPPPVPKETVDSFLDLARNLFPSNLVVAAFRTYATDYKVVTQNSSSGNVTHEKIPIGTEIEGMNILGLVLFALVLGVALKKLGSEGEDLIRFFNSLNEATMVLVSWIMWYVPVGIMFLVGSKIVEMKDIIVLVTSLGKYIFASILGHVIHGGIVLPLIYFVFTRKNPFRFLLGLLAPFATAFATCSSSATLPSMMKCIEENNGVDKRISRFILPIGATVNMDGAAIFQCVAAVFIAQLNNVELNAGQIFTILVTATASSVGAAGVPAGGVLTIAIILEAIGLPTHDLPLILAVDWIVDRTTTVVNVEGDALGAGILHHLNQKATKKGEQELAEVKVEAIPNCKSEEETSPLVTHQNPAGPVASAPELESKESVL
# PROCEDURE_TEXT: [3H]L-serine transport into HEK cells expressing recombinant human ASCT1
# REPORTED_CONDITIONS: inhibition of [3H]L-serine transport, HEK cells with human ASCT1, n of 3-4; read-out: HEK1A4 ASCT1 IC50
RECORDED_ENDPOINT: IC50 (µM)
Give just the numeric value; µM need not be written.

The molecule O=C(O)[C@@H]1NC[C@H](OCc2cccc(Oc3ccccc3)c2)[C@H]1O (stereo in doubt) on human ASCT1 (Homo sapiens, UniProt P43007): IC50 was 46.4

The molecule O=C(O)[C@@H]1NC[C@H](OCc2ccc(-c3ccccc3)cc2)[C@H]1O (stereo in doubt) on human ASCT1 (Homo sapiens, UniProt P43007): IC50 was 3.6

* * *

# Tested on: ASCT1/2
# PROCEDURE_TEXT: [3H]L-serine transport into primary rat hippocampal astrocytes
# Type: cell-based
# REPORTED_CONDITIONS: inhibition of [3H]L-serine transport, rat astrocytes, 6-12 point curves, n of 3-4; read-out: Astro ASCT1/2 IC50
RECORDED_ENDPOINT: pIC50
Schema: pIC50 number; meaning minus log10 of the concentration expressed in molar units.

molecule="O=C(O)[C@@H]1NC[C@H](OCc2cccc(Oc3ccccc3)c2)[C@H]1O (stereo in doubt)" endpoint_result=4.97

Okay, now this molecule:
The measured pIC50 associated with O=C(O)[C@@H]1NC[C@H](OCc2ccc(-c3ccccc3)cc2)[C@H]1O (stereo in doubt) reads 6.22
